meta.source: patent US20250186542A1

# System: Caco-2 cells
# measurement.notes: Evaluation of Caco-2 membrane permeability
# Assay type: in vitro ADME
# condition.context: 10 µM compound in FaSSIF/HBSS pH 6.5 apical, no lauroyl-L-carnitine; HBSS pH 7.4 4% BSA basal; 180 minutes
Bridge positions count the residues as written; N and C are the ends. Square brackets hold non-standard residues; d marks the D form. Peptide text beside a SMILES is read from it. * marks the point of attachment. ξ: configuration not given here. hPhe(3-Cl-4-CF3) = N[C@@H](CCc1ccc(C(F)(F)F)c(Cl)c1)C(=O)O; NMeCha = CN[C@@H](CC1CCCCC1)C(=O)O; NMeChg = CN[C@H](C(=O)O)C1CCCCC1; dNMeD = CN[C@H](CC(=O)O)C(=O)O; dNMeL = CN[C@H](CC(C)C)C(=O)O; ξIle = CC[C@H](C)C(N)C(=O)O; Piperidide = C1CCN(*)CC1; Ac5c = NC1(C(=O)O)CCCC1; Sar = CNCC(=O)O
Below, each entry is listed alongside its reported Without 5 mM lauroyl-L-carnitine Permeability coefficient (Caco-2 Papp).
reported.property: Without 5 mM lauroyl-L-carnitine Permeability coefficient (Caco-2 Papp) (×10⁻⁶ cm/s)

CC[C@H](C)[C@@H]1NC(=O)[C@H](CC(C)C)N(C)C(=O)CC(C(=O)N2CCCCC2)N(C)C(=O)[C@H](C2CCCC2)N(C)C(=O)C2(CCCC2)NC(=O)[C@@H]2CCCN2C(=O)[C@H](CCc2ccc(C(F)(F)F)c(Cl)c2)NC(=O)CN(C)C(=O)[C@H](CC2CCCCC2)N(C)C(=O)[C@@H]2CCN2C(=O)[C@H](C)N(C)C1=O (single isomer, unassigned) | 0.042
CC[C@H](C)C1NC(=O)[C@@H](CC(C)C)N(C)C(=O)C[C@H](C(=O)N2CCCCC2)N(C)C(=O)[C@H](C2CCCCC2)N(C)C(=O)C2(CCCC2)NC(=O)[C@@H]2CCCN2C(=O)[C@H](CCc2ccc(C(F)(F)F)c(Cl)c2)NC(=O)CN(C)C(=O)[C@H](CC2CCCCC2)N(C)C(=O)CN(C)C(=O)CN(C)C1=O (some centres unmarked) [Compound 1] ([dNMeL][ξIle][Sar][Sar][NMeCha][Sar][hPhe(3-Cl-4-CF3)]P[Ac5c][NMeChg][dNMeD]-Piperidide; lactam N-11) | 0.0142

###

# measurement.notes: Evaluation of Caco-2 membrane permeability
# Type: in vitro ADME
# condition.context: human, Caco-2, With 5 mM lauroyl-L-carnitine Permeability coefficient (Caco-2 Papp)
reported.property: Papp A→B at 180 min (×10⁻⁶ cm/s)

CCCCN1CC(=O)N(C)[C@@H](CC(C)C)C(=O)N[C@@H](Cc2ccc(C(=O)NS(C)(=O)=O)c(OC)c2)C(=O)N(C)[C@@H](CC(C)C)C(=O)N(C)[C@@H](CC(C)C)C(=O)NC(C(=O)N2CCCCC2)CC(=O)NC(CC(C)C)C(=O)N(C)[C@@H](Cc2ccccc2)C(=O)NC(C(C)C)C(=O)N(C)[C@@H](CC(C)C)C(=O)N[C@@H]([C@H](C)O)C1=O (single isomer, unassigned) [Compound 11] | 0.0302
CC[C@H](C)[C@@H]1NC(=O)[C@H](CC(C)C)N(C)C(=O)CC(C(=O)N2CCOCC2)N(C)C(=O)[C@H](C2CCCC2)N(C)C(=O)C2(CCCC2)NC(=O)[C@@H]2CCCN2C(=O)[C@H](CCc2ccc(C(F)(F)F)c(Cl)c2)NC(=O)CN(C)C(=O)[C@H](Cc2ccc(C)cc2)N(CC)C(=O)[C@@H]2CCN2C(=O)[C@H](C)N(C)C1=O (single isomer, unassigned) [Compound 3] | 0.366
